From: the supplement of paper PMC9337992

Tested on: CAL120
Test: cell proliferation (confluence) relative to DMSO control; higher = less growth inhibition
Details: 5 uM; 6 d
readout.name: cell proliferation (%)
Give the value in % but do not write % after it.

Cn1cc(CCn2cnc(-c3cnn(C)c3)c2-c2ccc(C#N)cc2)cn1 | 97.6
CCCc1cc(C)[nH]c(=O)c1CNC(=O)c1cc(-c2ccnc(N3CCN(C)CC3)c2)cc2c1cnn2C(C)C | 94.6
COc1cc2c(NC3CCN(C(C)C)CC3)nc(C3CCCCC3)nc2cc1OCCCN1CCCC1 | 81.6
COc1ccccc1C(=O)Nc1cc2c(cc1N1CCCC1)n(C)c(=O)n2C | 99.2
CN(C)[C@H]1CN(C2CCc3cccc(F)c32)C[C@@H]1c1ccc(N2CCN(S(C)(=O)=O)CC2)cc1 (some centres undefined) | 91.9

For the compound shown here, COc1ccc(CCc2nc3cc(-c4c(C)noc4C)ccc3n2C[C@H](C)N2CCOCC2)cc1Cl , give the reported cell proliferation.
99.6

State the recorded cell proliferation for this entry: CC(C)N(CCCNC(=O)Nc1ccc(C(C)(C)C)cc1)C[C@H]1O[C@@H](n2cc(Br)c3c(N)ncnc32)[C@H](O)[C@@H]1O
98.5

I would be grateful if you could share the reported cell proliferation for CCn1cc(-c2cccc(C(F)(F)F)c2)c2sc(C(=N)NC3CCS(=O)(=O)CC3)cc2c1=O .
98.9

Please report the recorded cell proliferation for O=C(/C=C/N1C[C@H]2C[C@@H]1CN2c1ccccn1)c1ccccc1O .
93.4

====

Item-by-item account of cell proliferation
System: HCC1806
Experiment: cell proliferation (confluence) relative to DMSO control; higher = less growth inhibition
Settings: 5 uM; 6 d

Worked cases, cell proliferation given:
CN(C)[C@H]1CN(C2CCc3cccc(F)c32)C[C@@H]1c1ccc(N2CCN(S(C)(=O)=O)CC2)cc1 (stereo not given in full) | 99.1%
CC(C)N(CCCNC(=O)Nc1ccc(C(C)(C)C)cc1)C[C@H]1O[C@@H](n2cc(Br)c3c(N)ncnc32)[C@H](O)[C@@H]1O | 99.9%
Cn1cc(CCn2cnc(-c3cnn(C)c3)c2-c2ccc(C#N)cc2)cn1 | 76.7%
COc1cc(C#N)ccc1S(=O)(=O)Nc1ccc2c(c1)cc(C)c(=O)n2C | 76.1%

For the compound Clc1cc2c(NC3CCCC3)nnc(-c3ccncc3)c2cc1Cl , what cell proliferation is on record?
99%

====

Test system: CAL120
Experiment: cell proliferation (confluence) relative to DMSO control; higher = less growth inhibition
Details: 5 uM; 6 d
readout.name: cell proliferation (%)
Supply the numeric figure in %, leaving out any unit text.

Record excerpt, results attached:
CC(C)Oc1ccc(-c2c[nH]cc2CN(C)CCN)cc1 | 99.3
CCCc1cc(C)[nH]c(=O)c1CNC(=O)c1cc(-c2ccc(N3CCN(C(C)C)CC3)nc2)cc2c1cnn2C(C)C | 85.5
O=C(NC[C@H](O)CN1CCc2ccccc2C1)c1ccnc(NC2CCC2)c1 | 90
O=C(NCC(=O)N1CCCC1)Nc1ccc2cnccc2c1 | 98.8

# evaluate next
Would you mind telling me what cell proliferation value was observed for COc1cc2c(cc1OCCCN1CCCC1)N=C(N)C21CCC1 ?
83.1

====

Each entry below carries its reported cell proliferation.
Test system: MB157
Assay: cell proliferation (confluence) relative to DMSO control; higher = less growth inhibition
Conditions: 5 uM; 6 d
Write the answer as a number in %, unit excluded.

Past entries and their recorded results:
CCC(=O)N1CCOc2c(cc(-c3ccc(OC)c(OC)c3)cc2OC[C@H]2CCCN(C)C2)C1 | 94.2
Cc1cc(=O)n(C)c2cc(N3C(=O)CC[C@H](NS(=O)(=O)CC(C)C)[C@H]3c3ccc(Cl)cc3)ccc12 | 71
COc1cc(-c2cn(C)c(=O)c3cnccc23)c(OC)cc1CN(C)C | 88.3
CCn1cc(-c2cccc(C(F)(F)F)c2)c2sc(C(=N)NC3CCS(=O)(=O)CC3)cc2c1=O | 71.8

Please find the next molecule below.
Query cell proliferation on MB157 for COc1cc2c(cc1OCCCN1CCCC1)N=C(N)C21CCC1
72.5

====

Test system: HCC1806
Experiment: cell proliferation (confluence) relative to DMSO control; higher = less growth inhibition
Conditions: 5 uM; 6 d
readout.name: cell proliferation (%)
Please respond with the number in % and leave the unit unwritten.

COc1ccccc1S(=O)(=O)Nc1ccc2c(c1)CN(C)C(=O)N2 | 38.5
CNCCN1CCC(OCc2ccccc2)CC1 | 73.6
COc1ccccc1C(=O)Nc1cc2c(cc1N1CCCC1)n(C)c(=O)n2C | 77.1
O=C(/C=C/N1C[C@H]2C[C@@H]1CN2c1ccccn1)c1ccccc1O | 99.8

Please look up its cell proliferation: Cc1cc(=O)n(C)c2cc(N3C(=O)CC[C@H](NS(=O)(=O)CC(C)C)[C@H]3c3ccc(Cl)cc3)ccc12
81.7

====

System: MB157
Assay: cell proliferation (confluence) relative to DMSO control; higher = less growth inhibition
Settings: 5 uM; 6 d
Reported values of cell proliferation for individual entries
Write it as a number; the unit % goes unstated.

COc1cc2c(NC3CCN(C(C)C)CC3)nc(C3CCCCC3)nc2cc1OCCCN1CCCC1 | 67.8
COc1ccccc1C(=O)Nc1cc2c(cc1N1CCCC1)n(C)c(=O)n2C | 89.6
Cn1cc(CCn2cnc(-c3cnn(C)c3)c2-c2ccc(C#N)cc2)cn1 | 62.6

Please turn your attention to the following entry.
Consider the molecule CN(C)[C@H]1CN(C2CCc3cccc(F)c32)C[C@@H]1c1ccc(N2CCN(S(C)(=O)=O)CC2)cc1 (some centres undefined) and give its measured cell proliferation.
91.6

====

Test system: SUM149-PT
Assay: cell proliferation (confluence) relative to DMSO control; higher = less growth inhibition
Settings: 5 uM; 6 d
Using cell proliferation as the sorting value, the categories are lower bin: < 40%; middle bin: ≥ 40% and < 70%; upper bin: ≥ 70%

CCOC(=O)CCNc1cc(N2CCc3ccccc3CC2)nc(-c2ccccn2)n1 | lower bin
O=C(NCC(=O)N1CCCC1)Nc1ccc2cnccc2c1 | upper bin
CCCc1cc(C)[nH]c(=O)c1CNC(=O)c1cc(-c2ccc(N3CCN(C(C)C)CC3)nc2)cc2c1cnn2C(C)C | lower bin
Clc1cc2c(NC3CCCC3)nnc(-c3ccncc3)c2cc1Cl | middle bin
CC(C)Oc1ccc(-c2c[nH]cc2CN(C)CCO)cc1 | upper bin

// return the class label for CC(C)Oc1ccc(-c2c[nH]cc2CN(C)CCN)cc1
middle bin

Entry CCC(=O)N1CCOc2c(cc(-c3ccc(OC)c(OC)c3)cc2OC[C@H]2CCCN(C)C2)C1 belongs to which category?
lower bin

Please indicate the class for Cc1nnc2c3ccccc3c(N[C@@H](C)[C@H](c3ccccc3)N(C)C)nn12 based on its cell proliferation.
upper bin

Into which bin does this molecule go? O=C(NC[C@H](O)CN1CCc2ccccc2C1)c1ccnc(NC2CCC2)c1
lower bin

For Cc1cc(=O)n(C)c2cc(N3C(=O)CC[C@H](NS(=O)(=O)CC(C)C)[C@H]3c3ccc(Cl)cc3)ccc12 , which cell proliferation bin applies?
upper bin

====

Listing of entries alongside the reported cell proliferation.
Tested on: MDAMB231
Experiment: cell proliferation (confluence) relative to DMSO control; higher = less growth inhibition
Conditions: 5 uM; 6 d
// note: answer is a bare numeric in %

Consider the following illustrative entries.
COc1cc2c(NC3CCN(C(C)C)CC3)nc(C3CCCCC3)nc2cc1OCCCN1CCCC1 | 99.1
CCn1cc(-c2cccc(C(F)(F)F)c2)c2sc(C(=N)NC3CCS(=O)(=O)CC3)cc2c1=O | 89.7
O=C(c1ccc(C(=O)N2CCC(N3CCCC3)CC2)c(Nc2ccccc2)c1)N1CCC(N2CCCC2)CC1 | 99.1

Which measured cell proliferation value corresponds to COc1c(C)cc(NC(=O)c2nn(Cc3ccc(F)cc3)c3c2CN(C(=O)c2ccc[nH]2)C[C@]3(C)C(N)=O)cc1C ?
95.7

Return reported cell proliferation; argument: CC(C)Oc1ccc(-c2c[nH]cc2CN(C)CCO)cc1
86.1

Query: cell proliferation; subject: CCOC(=O)CCNc1cc(N2CCc3ccccc3CC2)nc(-c2cccnc2)n1
98.9

// lookup cell proliferation for COc1cc(-c2cn(C)c(=O)c3cnccc23)c(OC)cc1CN(C)C
96.6

Which value of cell proliferation has been reported for CN(C)[C@H]1CN(C2CCc3cccc(F)c32)C[C@@H]1c1ccc(N2CCN(S(C)(=O)=O)CC2)cc1 (some centres not stated) in the records?
99.2

Query (compound): COc1ccccc1S(=O)(=O)Nc1ccc2c(c1)CN(C)C(=O)N2 ; field requested: cell proliferation
67.9

Form field: reported cell proliferation of COc1ccccc1C(=O)Nc1cc2c(cc1N1CCCC1)n(C)c(=O)n2C
91.8

Can you look up the measured cell proliferation of Clc1cc2c(NC3CCCC3)nnc(-c3ccncc3)c2cc1Cl for me?
98.7

Any idea what cell proliferation was measured for CC[C@H](C)n1cc(C)c2c(C(=O)NCc3c(C)cc(C)[nH]c3=O)cc(-c3ccc(N4CCNCC4)nc3)cc21 ?
98.5

Need cell proliferation, item Cc1cc(=O)n(C)c2cc(N3C(=O)CC[C@H](NS(=O)(=O)CC(C)C)[C@H]3c3ccc(Cl)cc3)ccc12
95.9

Can you share its cell proliferation? I mean this compound: CCCc1cc(C)n(C)c(=O)c1CN(C)C(=O)c1cc(-c2ccc(N3CCN(C(C)C)CC3)nc2)cc2c1cnn2C(C)C
99.3

Which cell proliferation value belongs to O=C(NC[C@H](O)CN1CCc2ccccc2C1)c1ccnc(NC2CCC2)c1 ?
45

Using the record for COc1cc(C#N)ccc1S(=O)(=O)Nc1ccc2c(c1)cc(C)c(=O)n2C , report its cell proliferation.
95.9

// lookup cell proliferation for Cc1nnc2c3ccccc3c(N[C@@H](C)[C@H](c3ccccc3)N(C)C)nn12
88.6
